Test system: MCF7 breast
Assay: NCI tumour cell line growth inhibition, 48 h

{"columns": ["COMPOUND", "GI50"],
 "data": [
  ["Cc1ccc(-c2c3c(nn2-c2ccc(S(=O)(=O)NC(=O)NC4CCCCC4)cc2)-c2ccccc2C3)cc1", "5.88 µM"],
  ["c1cc(C2CCCCC2)ccc1-c1cnc2nonc2n1", "0.393 µM"],
  ["CNCC(=O)NC(CO)C(=O)NC(CO)C(=O)NC1C(C(N)=O)OC(n2ccc(N)nc2=O)C(O)C1O (stereo not drawn)", "> 50 mg/L"],
  ["C#CCOc1cccc(Nc2ncnc3cc(NC(=O)C=C)ccc23)c1", "3.65 µM"],
  ["O=C1c2ccn(CCCNC(CO)(CO)CO)c2C(=O)c2c1c(O)c1ccccc1c2O", "13 µM"],
  ["O=C(N/N=C/c1cc(Cl)ccc1O)c1ccccc1Nc1ccnc(C(F)(F)F)c1", "0.351 µM"],
  ["[Cl][Hg][c]1ccc2ccccc2c1", "2.07 µM"],
  ["COC(=O)c1ccc(NC(=O)c2ccc(NC3=C(Cl)C(=O)N(Cc4ccccc4)C3=O)cc2)cc1", "7.16 µM"]
]}

----------
Test system: SK-MEL-2 melanoma
Assay: NCI tumour cell line growth inhibition, 48 h

{"columns": ["MOLECULE", "TGI"],
 "data": [
  ["Cn1cc(C2=C(c3cc[nH]c3)C(=O)NC2=O)c2ccccc21", "> 25 µM"],
  ["C[C@H](c1ccccc1)n1c(N)c(-c2nc3ccccc3s2)c2ccc([N+](=O)[O-])cc2c1=O", "> 28.7 µM"],
  ["N#CC(C(=N/O)/C(=N\\O)C(C#N)c1ccccc1)c1ccccc1 (stereo not drawn)", "> 100 µM"]
]}

----------
System: A549 NSCLC
Assay: NCI tumour cell line growth inhibition, 48 h

{"columns": ["MOLECULE", "TGI"],
 "data": [
  ["COc1ccc(C2Oc3c(cccc3-c3c(-c4ccc(O)cc4)oc4cc(O)cc(O)c4c3=O)C(=O)C2O)cc1O (centres undefined)", "> 100 µM"],
  ["C=CCSC1=N/C(=C\\c2ccc(OC)cc2)C(=O)N1CC=C", "> 100 µM"],
  ["CNn1c(-c2ccc(C)cc2)n[nH]c1=O", "> 100 µM"],
  ["CCCCCCCCCC(=O)NC(CCC(=O)N(CCNC(=O)c1nc(-c2ccccc2)oc1-c1ccccc1)Cc1ccccc1)C(=O)O (centres undefined)", "31.9 µM"],
  ["Nn1c(-c2cccc(Cl)c2)nc2ccccc2c1=O", "> 100 µM"],
  ["Cc1ccc2c(=O)c(-c3nnc(NC4CCCCC4)s3)c[nH]c2n1", "> 100 µM"],
  ["CC(=O)N1C(=O)c2cc3ccccc3cc21", "> 100 µM"],
  ["O=[N+]([O-])c1cccc(-c2cn3c(n2)Cc2ccccc2C3)c1", "> 100 µM"],
  ["O=C(CSC(c1ccccc1)c1ccccc1)N/N=C/c1ccccc1Cl", "> 57.3 µM"],
  ["Cc1cccc2c1Sc1ccccc1C2NC(=O)CN(C)C (centres undefined)", "> 100 µM"],
  ["C=C1CCC2[C@](C)(CCC[C@]2(C)C(=O)O)[C@@H]1CCc1ccoc1 (some centres undefined)", "> 100 µM"],
  ["Cc1ccc(NC(=S)C#N)c(C)c1", "> 100 µM"],
  ["CC(=O)O[C@H]1CC[C@H]2[C@@H]3CCC4=C/C(=N/OCCN(C)C)CC[C@]4(C)[C@H]3CC[C@]12C", "25.6 µM"],
  ["O=C(NCCCl)Nc1ccccc1", "> 100 µM"],
  ["NNC(=O)c1cc([N+](=O)[O-])ccc1NC(=O)C12CC3CC(CC(C3)C1)C2", "51.7 µM"],
  ["CC(NP(=O)(c1ccccc1)c1ccccc1)c1ccccc1 (centres undefined)", "> 100 µM"],
  ["COC(=O)C12C34C=CC5(CCC6(C=CC1(CC3)O6)C52C(=O)OC)O4 (centres undefined)", "> 100 µM"],
  ["COc1cc2c(NC3CCN(C(C)C)CC3)nc(C3CCCCC3)nc2cc1OCCCN1CCCC1", "13.3 µM"],
  ["COC(=O)[C@]12C3=C(O)C(=O)C[C@H]1OC[C@H]2C=CC3", "> 100 µM"],
  ["O=C1C=C(NCC(c2ccccc2)c2ccccc2)C(=O)c2ncccc21", "1.87 µM"],
  ["C[C@H](c1ccccc1)n1c(N)c(-c2nc3ccccc3s2)c2ccc([N+](=O)[O-])cc2c1=O", "> 100 µM"],
  ["CCn1cc(C(=O)N/N=C/c2cccs2)c(=O)c2cc(F)c(N3CCNC(C)C3)c(F)c21 (centres undefined)", "3.37 µM"],
  ["C1=Nc2ccc(cc2)-c2ccc(cc2)N=Cc2ccc(cc2)OCc2cccc(n2)COc2ccc1cc2", "> 100 µM"],
  ["CN(C)C(=S)/N=c1\\ssc(=S)n1Cc1ccco1", "> 100 µM"],
  ["COc1cccc2c(SCC(=O)Nc3ccccc3-c3ccccc3NC(=O)CSc3c4ccccc4nc4c(OC)cccc34)c3ccccc3nc12", "> 100 µM"],
  ["CCO[C@@]12CCC3CC4CC[C@@](OCC)(O1)C4C32 (some centres undefined)", "> 100 µM"],
  ["Cc1cc(Cl)nc(N(CCCNc2ccnc3cc(Cl)ccc23)Cc2cccs2)n1", "12.5 µM"],
  ["O=C1C(Cl)=C(Nc2cc(Cl)ccc2O)C(=O)N1Cc1ccccc1", "36.7 µM"],
  ["CC(C)c1[nH]nc2c(NCc3ccc(-c4ccccn4)cc3)nc(SCCN)nc12", "12.2 µM"]
]}

----------
System: MOLT-4 leukemia
Assay: NCI tumour cell line growth inhibition, 48 h
READOUT_TYPE: TGI

{"columns": ["COMPOUND", "OBSERVED"],
 "data": [
  ["Nc1nc(Cl)c(N)c(NCC2(CO)CCC(CCc3ccccc3)C2)n1 (centres undefined)", "28 µM"],
  ["O=C1c2ccn(CCCNC(CO)(CO)CO)c2C(=O)c2c1c(O)c1ccccc1c2O", "> 37.2 µM"],
  ["CSc1nnc(-c2cc3c([nH]c4ccccc43)c(-c3cccc(O)c3)n2)n1-c1ccc(C)cc1", "> 100 µM"],
  ["O=C1CC(Cc2n[nH]c3c2CCCC3)CC(=O)N1", "> 100 µM"],
  ["O=[N+]([O-])c1cccc(-c2cn3c(n2)Cc2ccccc2C3)c1", "> 100 µM"],
  ["CC(Cc1ccccc1)N(C)Cc1nc(C2CCC([N+](=O)[O-])O2)no1 (centres undefined)", "> 100 µM"],
  ["COc1ccc2nc3n(c2c1)C(c1c(F)cccc1F)SC3 (centres undefined)", "> 100 µM"],
  ["CSC1(C(=O)O)C2CCC3C2CCC31 (centres undefined)", "> 100 µM"],
  ["Cc1nc2c(O)c3c(c(O)c2nc1C)C1C=CC3CC1", "2.9 µM"]
]}

----------
Test system: UACC-257 melanoma
Experiment: NCI tumour cell line growth inhibition, 48 h
READOUT_TYPE: TGI

{"columns": ["MOLECULE", "OBSERVED"],
 "data": [
  ["O=C1NC2(CCCCC2)C2CCCCC=C12 (stereo not drawn)", "> 100 µM"],
  ["COc1ccc2c(C)cc(N/N=C/c3ccc(C)s3)nc2c1", "> 52.9 µM"],
  ["Nc1n[nH]c2c(C(=O)Nc3ccc(Cl)cc3)c(N)n(N)c(=O)c12", "> 100 µM"]
]}

----------
System: CAKI-1 renal
Experiment: NCI tumour cell line growth inhibition, 48 h; in the data active means GI50 below about 0.43 µM; inactive means the rest
Outcome codes: active, inactive

{"columns": ["COMPOUND_STRUCTURE_STRING", "LABEL_VALUE"],
 "data": [
  ["CC(C)c1[nH]nc2c(NCc3ccc(-c4ccccn4)cc3)nc(SCCN(C)C)nc12", "active"],
  ["COc1cccc(N2CCN(c3ncnc4cc[nH]c34)CC2)c1", "inactive"],
  ["Cc1c(Cl)cccc1NC(=O)c1sc2nc3c(cc2c1N)C(=O)CCC3", "active"],
  ["CC(C)(O)CCc1cccc(C(=O)c2cnn(-c3ccc(F)cc3)c2N)c1", "inactive"]
]}

----------
Tested on: SK-MEL-2 melanoma
Experiment: NCI tumour cell line growth inhibition, 48 h; in the data active = GI50 below about 0.43 µM; inactive = the rest
Outcomes: active, inactive

{"columns": ["COMPOUND", "LABEL_VALUE"],
 "data": [
  ["CC1=NN(c2cccc(Cl)c2)C(=O)/C1=C\\C=C\\c1ccccc1", "inactive"],
  ["CC(C)c1[nH]nc2c(NCc3ccc(-c4ccccn4)cc3)nc(SCCN)nc12", "active"],
  ["CCN(CC)S(=O)(=O)c1cccc(-c2ccc3c(NC(=O)C4CC4)n[nH]c3c2)c1", "inactive"],
  ["CCC[n+]1cc2cc3c(cc2c2c1-c1cc4c(cc1C2)OCO4)OCO3 (tested in a mixture with another compound)", "inactive"],
  ["Cc1nn(Cc2ccccc2)cc1C(=O)Nc1sc2c(c1C(N)=O)CCC(=O)C2", "inactive"],
  ["CC(=O)O[C@@H]1C2=C(C)C3(CC3)[C@@](C)(O)C(=O)C2=C[C@@]1(C)CO", "inactive"],
  ["C[C@H]1COCCN1c1nc(-c2cnc(N)cc2C(F)F)nc(N2CCOCC2)n1", "active"],
  ["C[C@@]1(C(=O)O)CCC[C@]2(C)C1CC[C@]13C[C@@](O)(CO)[C@](O)(CC[C@]12O)C3 (some centres not stated)", "inactive"],
  ["O=C(N/N=C/c1cc(Cl)ccc1O)c1ccccc1Nc1ccnc(C(F)(F)F)c1", "inactive"],
  ["O=c1cc(-c2ccccc2)oc2cc(OCCCCCN3CCOCC3)cc(O)c12", "inactive"],
  ["CC(=O)c1ccc2c3c1[C@H]1O[C@H]1c1cccc(c1-3)[C@@H]1O[C@H]21", "inactive"],
  ["CC(C)c1[nH]nc2c(NCc3ccc(-c4ccccn4)cc3)nc(SCCN(C)C)nc12", "active"]
]}
